Tested on: DAPI
Assay: TAG lipid buildup inhibition with viability readout – cell-based, panel, Nile Red and DAPI fluorescence, H9c2, dose response (AID 651630);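 further: cells exposed to compound overnight before fixation and staining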
Conditions: H9c2 cells, DAPI nuclear fluorescence (cytotoxicity counter-readout), oleic acid, run 2
Attribute: IC50 cytotoxicity (DAPI nuclear signal decrease)

These solved cases illustrate the format of a correct answer.
COc1cccc(/C=C/C(=C2/C(=O)N(c3ccccc3)N=C2C)c2ccc(C)cc2)c1OC | > 25 µM
C=CC[C@@H](CC(=O)N(CCO)Cc1ccccc1)C(=O)N[C@H](COC(=O)[C@@H](CC=C)Cc1ccc(F)cc1)C(C)(C)C | > 25 µM
O=C(Cc1n[nH]c(=O)c2ccccc12)OCC(=O)c1ccc2c(c1)OCCO2 | > 25 µM
O=P(O)(O)CN1CCNCCN(CP(=O)(O)O)CCNCC1 | > 25 µM
COc1cc2c(cc1OC)C(C)N(C(=O)c1cc3c(C)cc(C)cc3[nH]1)CC2 (stereo not given) | > 25 µM
CCCCCCC(C)(C)c1ccc([C@@H]2C[C@H](O)CC[C@H]2CCCO)c(O)c1 | 20.2 µM

Incoming: Recorded IC50 cytotoxicity (DAPI nuclear signal decrease) of CC(C)C(C)(C#N)NC(=O)CSc1nc2scc(-c3ccco3)c2c(=O)n1-c1ccccc1 (stereo not given) , please.
Outgoing: > 25 µM

Incoming: Given the compound CNC(=S)NN=C(C)c1ccc(OC)cc1O , what is its reported IC50 cytotoxicity (DAPI nuclear signal decrease)?
Outgoing: > 25 µM

Incoming: Which IC50 cytotoxicity (DAPI nuclear signal decrease) value is on record for O=C(NCc1nnnn1-c1ccc(F)cc1)c1ccc([N+](=O)[O-])o1 ?
Outgoing: 11.9 µM

Incoming: Which IC50 cytotoxicity (DAPI nuclear signal decrease) value belongs to Cc1ccc(NC(=S)N(CCCN2CCCC2)Cc2cccn2Cc2ccc(Cl)cc2)cc1Cl ?
Outgoing: 23.1 µM

====

Tested on: DAPI
Assay: TAG lipid buildup inhibition with viability readout – cell-based, panel, Nile Red and DAPI fluorescence, H9c2, dose response (AID 651630);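 further: cells exposed to compound overnight before fixation and staining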
Conditions: H9c2 cells, DAPI nuclear fluorescence (cytotoxicity counter-readout), oleic acid, mean of runs
Activity calls are given as the source filed them.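 The calls were made as follows: active = lipid-stain IC50 at or below a set limit, with nuclear-stain toxicity IC50 at least five times higher; inactive = the rest.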
recordedMetric: IC50 cytotoxicity (DAPI nuclear signal decrease)

Worked examples, 2 compounds total:
COC(=O)C1=C(C)N(Cc2ccccc2)C(=NCc2cc(OC)c(OC)c(OC)c2)N[C@H]1c1ccc(Br)cc1 | > 25 µM (inactive)
O=C(CCl)N(CCCNC(=O)C(F)(F)F)c1ccc([N+](=O)[O-])cc1 | > 25 µM (inactive)

Incoming: Recorded IC50 cytotoxicity (DAPI nuclear signal decrease) for CC1(C(=O)NCc2cccs2)Cc2c(-c3ccc4c(c3)OCO4)ccnc2O1 (stereo not drawn) with DAPI, please?
Outgoing: > 25 µM (inactive)

Incoming: Provide value of IC50 cytotoxicity (DAPI nuclear signal decrease) for this record tested with DAPI: COc1ccc(CN(C)C[C@@H]2OCCCC[C@H](C)Oc3ccc(NC(=O)Nc4ccc(F)cc4)cc3C(=O)N([C@H](C)CO)C[C@H]2C)cc1
Outgoing: > 25 µM (inactive)

Incoming: Give IC50 cytotoxicity (DAPI nuclear signal decrease) (DAPI) of the following compound: O=C(OCc1ccc(Br)cc1)c1cc([N+](=O)[O-])ccc1N1CCOCC1
Outgoing: > 25 µM (inactive)

Incoming: Under DAPI: IC50 cytotoxicity (DAPI nuclear signal decrease) value of CCOc1ccc2nc(NC(=O)C3CCCN(S(=O)(=O)c4c(C)noc4C)C3)sc2c1 (stereo not drawn) ?
Outgoing: > 25 µM (inactive)

Incoming: Item CN(C)C(=S)N=c1ssc(=S)n1Cc1ccco1 with DAPI - IC50 cytotoxicity (DAPI nuclear signal decrease)?
Outgoing: > 25 µM (inactive)

Incoming: Provide value of IC50 cytotoxicity (DAPI nuclear signal decrease) for this record tested with DAPI: COc1ccc(C(C(=O)NC(C)(C)C)N(Cc2ccco2)C(=O)CCC(=O)Nc2cc(C)on2)cc1 (stereo not drawn)
Outgoing: > 25 µM (inactive)

====

Tested on: TAG
Assay: TAG lipid buildup inhibition with viability readout – cell-based, panel, Nile Red and DAPI fluorescence, H9c2, dose response (AID 651630);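 further: cells exposed to compound overnight before fixation and staining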
Details: H9c2 cells, Nile Red TAG fluorescence, oleic acid, mean of runs
The source made the active and inactive calls.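 How the source made its calls: active means lipid-stain IC50 at or below a set limit, with nuclear-stain toxicity IC50 at least five times higher; inactive means the rest.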
IC50 values, listed per item

Cc1noc(C)c1CSc1nc2[nH]ncc2c(=O)n1-c1ccccc1 | 4.41 µM
CCOC(=O)N1CCN(C(=O)c2ccccc2N(Cc2ccccc2)S(=O)(=O)c2ccc(OC)cc2)CC1 | 19.9 µM (inactive)
O=C(OCc1ccc(Br)cc1)c1cc([N+](=O)[O-])ccc1N1CCOCC1 | > 25 µM (inactive)
COc1ccc([C@H]2CC(=O)C=C(c3ccc(OC)cc3OC)C2)cc1 | > 25 µM (inactive)
CCCCOc1ccccc1NC(=O)Cn1c(-c2nonc2N)nc2ccccc21 | > 25 µM (inactive)
O=C1NC(Cc2ccc(O)cc2)c2nc3ccc(F)cc3c(=O)n2-c2cc3ccccc3cc21 (stereo unspecified) | 2.45 µM
Cc1cc(C)c2nc(-c3ccncc3)cc(C(=O)N3CCN(Cc4ccccc4Cl)CC3)c2c1 | 12.1 µM
C=CCn1c(N)c(C(=O)Nc2ccccc2)c2nc3ccccc3nc21 | 6.11 µM
CC(=O)c1cccc(-c2ccnc3c2CC(C(=O)NCc2ccco2)O3)c1 (stereo unspecified) | > 25 µM (inactive)
CCCC(=O)Nc1nc2ccc(NC(=O)c3c(F)c(F)c(OC)c(F)c3F)cc2s1 | 6.21 µM

Now consider the entry below.
Incoming: Lab note: need IC50 for CC(C)(C)NC(=O)C(c1ccc(-c2ccccc2)cc1)N(C[C@H]1CC[C@@H]([C@@H]2CC[C@H](CO)O2)O1)C(=O)c1ccc(-c2ccccc2)cc1 (stereo partly specified) on TAG, anyone have it?
Outgoing: 13.8 µM

====

Entries and their IC50 cytotoxicity (DAPI nuclear signal decrease) values follow.
Tested on: DAPI
Assay: TAG lipid buildup inhibition with viability readout – cell-based, panel, Nile Red and DAPI fluorescence, H9c2, dose response (AID 651630);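 further: cells exposed to compound overnight before fixation and staining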
Conditions: H9c2 cells, DAPI nuclear fluorescence (cytotoxicity counter-readout), oleic acid, mean of runs
Active and inactive are the calls of the source.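 Rule for the calls: active = lipid-stain IC50 at or below a set limit, with nuclear-stain toxicity IC50 at least five times higher; inactive = the rest.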

Here's what some known entries look like.
CCOc1ccccc1-c1nc(-c2ccc(NC(=O)Cc3ccccc3OC)cc2)no1 | > 25 µM (inactive)
C=CC[C@@H](CC(=O)N(CCO)Cc1ccccc1)C(=O)N[C@H](COC(=O)[C@@H](CC=C)Cc1ccc(F)cc1)Cc1c[nH]c2ccccc12 | > 25 µM (inactive)
CCOc1cc(CNc2ccc3c(c2)OCCO3)cc(Br)c1OCC | > 25 µM (inactive)
C=CCC[C@@H](Cc1ccc(F)cc1)C(=O)OC[C@@H](NC(=O)[C@@H](CC=C)CC(=O)N[C@H](CO)Cc1ccccc1)C(C)(C)C | > 25 µM (inactive)
COc1ccc2c(c1)c(CC(=O)Nc1ccc(C)cc1)c(C)n2C(=O)c1ccc(Cl)cc1 | > 25 µM (inactive)
CCCCCOc1ccc(NC(=O)CSc2cccc3cccnc23)cc1 | > 25 µM (inactive)

Incoming: Quick one: IC50 cytotoxicity (DAPI nuclear signal decrease) for CCOC(=O)[C@H]1[C@H]2COc3ccc(C)cc3[C@@H]2N2C(=O)c3cc(Br)ccc3NC(=O)[C@@]12C ?
Outgoing: > 25 µM (inactive)

Incoming: What value of IC50 cytotoxicity (DAPI nuclear signal decrease) has been reported for the following compound? CCOc1cc(C(=O)N/N=C/c2cn(-c3ccccc3)nc2-c2cc3ccccc3o2)cc(OCC)c1OCC
Outgoing: > 25 µM (inactive)

Incoming: GET /values?readout=IC50 cytotoxicity (DAPI nuclear signal decrease)&item= CCCCCc1ccc(-c2cn(Cc3ccc(C(=O)c4ccccc4)cc3)nn2)cc1
Outgoing: > 25 µM (inactive)

====

System: DAPI
Assay: TAG lipid buildup inhibition with viability readout – cell-based, panel, Nile Red and DAPI fluorescence, H9c2, dose response (AID 651630);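 further: cells exposed to compound overnight before fixation and staining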
Settings: H9c2 cells, DAPI nuclear fluorescence (cytotoxicity counter-readout), oleic acid, run 2
recordedMetric: IC50 cytotoxicity (DAPI nuclear signal decrease)

Worked examples follow.
COc1ccc(-c2sc3ccc(N4CCOCC4)cc3c2C#CCCO)cc1 | > 25 µM
Cc1noc(C)c1COc1cccc(C(=O)OCC(=O)N2CC(=O)Nc3ccccc32)c1 | > 25 µM
CN(C)CCNC(=O)c1cccc2ccc(-c3ccc(-c4ccccc4)cc3)nc12 | > 25 µM

Incoming: Which IC50 cytotoxicity (DAPI nuclear signal decrease) value belongs to COc1ccc2[nH]c(C)c(CCNCc3cn(C)c4ccccc34)c2c1 ?
Outgoing: > 25 µM

Incoming: # IC50 cytotoxicity (DAPI nuclear signal decrease) lookup, item CC(C)c1ccc(NC(=O)Nc2nc(C(N)C3CCCCC3)cs2)cc1 (centres undefined)
Outgoing: 18.6 µM

Incoming: Data request, read-out IC50 cytotoxicity (DAPI nuclear signal decrease), for Cc1ccc(NC(=O)c2cc([N+](=O)[O-])ccc2NCc2cccnc2)cc1Cl
Outgoing: > 25 µM

Incoming: Look up IC50 cytotoxicity (DAPI nuclear signal decrease) for this compound: N#C/C(=C\Nc1ccc2cn[nH]c2c1)c1nc(-c2ccc(Cl)cc2)cs1
Outgoing: 12 µM

Incoming: Which IC50 cytotoxicity (DAPI nuclear signal decrease) is reported for this compound? Cc1cc(N2CCOCC2)n2nc(C)c(-c3ccccc3)c2n1
Outgoing: > 25 µM

Incoming: Value lookup for IC50 cytotoxicity (DAPI nuclear signal decrease); key = CCCCc1ccc(N=N/C(C(=O)Nc2cc(OC)c(NC(C)=O)cc2OC)=C(/C)O)cc1
Outgoing: > 25 µM

Incoming: Name the reported IC50 cytotoxicity (DAPI nuclear signal decrease) value associated with the compound O=C1NC(Cc2ccc(O)cc2)c2nc3ccc(F)cc3c(=O)n2-c2cc3ccccc3cc21 (centres undefined)
Outgoing: > 25 µM

Incoming: Quick check: IC50 cytotoxicity (DAPI nuclear signal decrease) of O=C(Nc1ccc([N+](=O)[O-])cn1)c1cc(-c2cccc(Cl)c2)nc2ccccc12 ?
Outgoing: > 25 µM

Incoming: Recorded IC50 cytotoxicity (DAPI nuclear signal decrease) for O=C(Nc1ccc(-c2csc(Nc3ccccc3)n2)cc1)c1cccc(C(F)(F)F)c1 , please?
Outgoing: > 25 µM

Incoming: // returns reported IC50 cytotoxicity (DAPI nuclear signal decrease) for input C=CC[C@@H](CC(=O)N(CCO)Cc1ccccc1)C(=O)N[C@H](COC(=O)[C@@H](CC=C)CC(=O)OC(C)(C)C)Cc1ccccc1
Outgoing: > 25 µM

Incoming: If you can, please state the reported IC50 cytotoxicity (DAPI nuclear signal decrease) value of CCOC(=O)c1c(CSC(=N)N)n(-c2ccccc2)c2cc(Br)c(OC(C)=O)cc12 .
Outgoing: > 25 µM
